These measurements were taken from patent US20160200831A1.

Please go through the items and note down their kon.
# Target Under Test: T1, cyno PAI-1 captured on immobilized human vitronectin (cynomolgus monkey; human, UniProt P04004 20-478, limits assumed)
# T1 construct: non-covalent complex formed on the chip; also called cPAI-1/Vn
# T1 sequence (chain, as listed by the source limits assumed, chain 1 of 2): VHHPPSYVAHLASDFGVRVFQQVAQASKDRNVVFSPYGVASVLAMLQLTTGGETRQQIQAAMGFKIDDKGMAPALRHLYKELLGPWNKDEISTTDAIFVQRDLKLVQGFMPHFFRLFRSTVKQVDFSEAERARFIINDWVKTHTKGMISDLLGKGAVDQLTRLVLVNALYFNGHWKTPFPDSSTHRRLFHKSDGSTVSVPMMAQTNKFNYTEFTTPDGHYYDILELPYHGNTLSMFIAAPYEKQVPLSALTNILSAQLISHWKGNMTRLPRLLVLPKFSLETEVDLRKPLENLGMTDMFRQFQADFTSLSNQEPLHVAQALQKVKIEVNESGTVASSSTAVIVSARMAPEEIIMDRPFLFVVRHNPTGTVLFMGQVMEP
# T1 sequence (P04004 20-478 limits assumed, chain 2 of 2): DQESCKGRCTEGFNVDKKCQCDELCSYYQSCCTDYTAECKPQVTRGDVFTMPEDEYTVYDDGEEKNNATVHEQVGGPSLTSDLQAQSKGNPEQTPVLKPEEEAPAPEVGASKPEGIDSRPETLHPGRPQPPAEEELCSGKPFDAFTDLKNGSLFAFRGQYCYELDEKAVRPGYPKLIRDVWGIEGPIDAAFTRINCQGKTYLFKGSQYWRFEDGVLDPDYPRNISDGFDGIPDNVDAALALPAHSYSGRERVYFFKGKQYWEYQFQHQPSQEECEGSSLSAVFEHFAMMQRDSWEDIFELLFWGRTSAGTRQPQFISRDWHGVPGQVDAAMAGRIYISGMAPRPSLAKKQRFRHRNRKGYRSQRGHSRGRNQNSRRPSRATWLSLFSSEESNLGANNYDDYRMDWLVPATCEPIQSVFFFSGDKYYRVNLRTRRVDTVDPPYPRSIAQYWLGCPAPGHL
# Test Details: Biacore, cPAI-1 on vitronectin chip, two state reaction model (ka1)
Write down the numeric answer in M⁻¹ s⁻¹ and omit the unit.

binder A44-hv13 (antibody, V domains shown, humanized A44, HEK293; constant regions as for A44-hv1; also called LC2 x HC5b; variant 13) VH: QMQLQESGPGLVKPSETLSLTCTVSGDSMTNGYWNWIRQPPGKGLEYMGYITYSGSTYYNPSLKSRITISRDTSKNQYSLKLSSVTAADTAVYYCARWHYGSPYYFDYWGQGTLVTVSS VL: DIKMTQSPSSLSASVGDRVTITCKASQDINSYLSWLQQKPGKSPKTLIYRAQRSVEGVPSRFSGSGSGQDYSLTISSLQPEDLGIYYCLQYDEFPPTFGGGTKLEIK , kon observed: 2.12e+06

binder A44-hv2 (antibody, V domains shown, humanized A44, HEK293; constant regions as for A44-hv1; also called LC1b x HC1b; variant 2) VH: EMQLQESGPGLVKPSETLSLTCSVTGDSMTNGYWNWIRKFPGKGLEYMGYITYSGSTYYNPSLKGRISITRNTSKNQYYLKLSSVTTADTATYYCARWHYGSPYYFDYWGQGTTLTVSS VL: DIKMTQSPSSVSVSPGQTVTITCKASQDINSYLSWLQQKPGQSPKTLIYRANRSVDGVPSRFSGSGSGQDYSLTISSLQAMDEGIYYCLQYDEFPPTFGGGTKLTIK , kon observed: 2.3e+06

binder A44-hv7 (antibody, V domains shown, humanized A44, HEK293; constant regions as for A44-hv1; also called LC4 x HC4; variant 7) VH: QMTLKESGPTLVKPTQTLSLTCSVSGESMTQGYWNWIRQFPGKALEYMGYITYSGSTYYNPSLKGRITITRQTSKNQYYLTLSSVTTVETATYYCARWHYGSPYYFDYWGQGTTLTVSS VL: DIKMTQSPSSLSASVGDRVTITCKASQDINSYLSWLQQKPGKSPKTLIYRAQRSVEGVPSRFSGSGSGQDYSLTISSLQPEDLATYYCLQYDEFPPTFGGGTKLEIK , kon observed: 2.5e+06

binder A44-hv1 (antibody, V domains shown, humanized A44, HEK293; also called LC1a x HC1a; variant 1) VH: EMTLKESGPTLVKPTQTLSLTCSVTGDSMTNGYWNWIRKFPGKALEYMGYITYSGSTYYNPSLKGRISITRNTSKNQYYLTLSSVTTVDTATYYCARWHYGSPYYFDYWGQGTTLTVSS VL: DIKMTQSPSSLSASVGDRVTITCKASQDINSYLSWLQQKPGKSPKTLIYRANRSVDGVPSRFSGSGSGQDYSLTISSLQPEDLGIYYCLQYDEFPPTFGGGTKLEIK , kon observed: 3.37e+06

binder A44-hv4 (antibody, V domains shown, humanized A44, HEK293; constant regions as for A44-hv1; also called LC1a x HC2b; variant 4) VH: EMTLKESGPTLVKPTQTLSLTCSVTGDSMTQGYWNWIRKFPGKALEYMGYITYSGSTYYNPSLKGRISITRNTSKNQYYLTLSSVTTVDTATYYCARWHYGSPYYFDYWGQGTTLTVSS VL: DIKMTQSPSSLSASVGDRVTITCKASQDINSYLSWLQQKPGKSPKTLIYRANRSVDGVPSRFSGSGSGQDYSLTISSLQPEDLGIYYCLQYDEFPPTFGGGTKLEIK , kon observed: 226000

binder A44-hv11 (antibody, V domains shown, humanized A44, HEK293; compared with a human IgG1 isotype control; constant regions as for A44-hv1; also called A44V11; A44v11) VH: QMTLKESGPTLVKPTQTLSLTCSVSGDSMTNGYWNWIRQFPGKALEYMGYITYSGSTYYNPSLKGRITITRDTSKNQYYLTLSSVTTVDTATYYCARWHYGSPYYFDYWGQGTTLTVSS VL: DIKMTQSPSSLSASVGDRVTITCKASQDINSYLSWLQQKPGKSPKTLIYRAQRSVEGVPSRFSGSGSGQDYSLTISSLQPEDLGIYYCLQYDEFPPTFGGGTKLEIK , kon observed: 1.56e+06
